# System: RARg homodimer (NR concentration 270 nM)
# TEST: PBM binding z-score (relative to random genomic background probes); higher = stronger binding; sequences stand for … in GC…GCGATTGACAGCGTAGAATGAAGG
METRIC_NAME: PBM binding z-score
Answers are plain numbers.

ENTRY_SEQUENCE | OBSERVED_MEASUREMENT
CGAACTAGGTCATTGACATGACAGTGAATAGTAA | 4.2
GCAGACAGGTGAAACGCAGGTACCTCAGGGTGGC | 0.145
CCGCCTGGGGCATAAGGTTACCATAAGCCAGCCC | 1.11
AGAATGAGGTTATACGTAGATCAGGAAAGAAAGT | 1.3
ATCGAAAGGTCGACGAGGTGAATATACACCGTTT | 3.93

Kindly give each listed record's PBM binding z-score.
1. CCAGACAGGGGAGAAGGTAACTCAGCCTCGATTA
2. CCTAGCAGGCCATGGTCACTCAAGCATTTCGCTT
3. TCATACAGGTAAAGGTGAAAGTCGAACGATATGA
4. ATCGAAAGGTCGTGAGGTGAGTAAACAGAAAGGC
5. ACCAGTTGGTCAGCTGAGGTCACACACAATTCGG
6. CCTTACGGGTCACTGCAGGTTATAGCATCGGAGT

-0.226
0.141
1.69
4.11
4.52
4.67

Value of measured PBM binding z-score for the entry TGAATGTGGTTAAAGATCAGGGAACGTGGCGTCG : -0.196
